# Test system: TRPC4 (mouse), co-expressed with 5HT1a in HEK293
# Experimental details: enhancement of serotonin-evoked TRPC4 response – cell-based, second counter screen, HEK293 TRPC4/5HT1a, Fluo-4, counter-screen for TRPC4 potentiator project, confirmation (AID 434979)
# Condition description: Fluo-4 calcium flux, at 10 µM, serotonin added at its EC20 dose; hits give high values
Active and inactive are the calls of the source.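 How the source made its calls: active means signal rise over 3 SD above mean of control wells given weak agonist, in both repeats and first screen; inactive means the rest.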
Readout type: potentiation

                                   compound                           target_of_assay        result
0  CCOC(=O)CC(NC(=O)c1cc2cc(Cl)cc(Cl)c2oc1=O)c1cccc([N+](=O)[O-])c1 (configuration not stated)  TRPC4 (mouse), co-expressed with 5HT1a in HEK293      inactive
1  CCCCN(C)CCNC(=S)Nc1ccc2nc(N3CCN(CC)CC3)cc(C)c2c1  TRPC4 (mouse), co-expressed with 5HT1a in HEK293  18% (active)
2  Cc1cc(OCc2cc(C(=O)NCCN3CCCCC3CO)no2)cc(C)c1Cl (configuration not stated)  TRPC4 (mouse), co-expressed with 5HT1a in HEK293      inactive
3           Cc1cccc(OCCn2c(=O)sc3ccccc32)c1  TRPC4 (mouse), co-expressed with 5HT1a in HEK293      inactive
4  Cc1cc(CN2CCCC(C(=O)Nc3ccc(-c4nc5ccccc5[nH]4)cc3)C2)n[nH]1 (configuration not stated)  TRPC4 (mouse), co-expressed with 5HT1a in HEK293      inactive

get_value(item= O=Cc1c(N2CCCCC2)nc2ccccn2c1=O , readout=potentiation) returns inactive

Lab note: COc1ccc(C2CC(c3ccccc3)Nc3nc(NC(=O)c4cccs4)nn32)cc1 (configuration not stated) gave potentiation of inactive

Given item Cc1ccc(-c2nnc(N3CCC(C)CC3)c3ccccc23)cc1C , the value recorded as its potentiation is 60.2% (active)

Entry Clc1cc(/C=N\NC2=NCCN2)cc(Cl)n1 — recorded potentiation = inactive

Measured potentiation of Cc1ccc(Cl)cc1N1CCN(Cc2nc3c(c(=O)[nH]c(=O)n3C)n2Cc2ccccc2F)CC1 : 25.8% (active)

Documented potentiation of COc1ccc(C2C(C(C)=O)=C(O)C(=O)N2c2ccc(Br)cc2)cc1 (configuration not stated) : inactive

compound N#Cc1c(N2CCCCC2)nc(N)c2c(N)nc3c(c12)CC(c1ccccc1)O3 (configuration not stated) , potentiation observed: inactive

For NS(=O)(=O)c1ccc(NN=C2CCN(Cc3ccccc3)CC2)c([N+](=O)[O-])c1 the compound record lists potentiation as 16.3% (active)

====

# Target of assay: Short transient receptor potential channel 4 (Mus musculus) (UniProt Q9QUQ5)
# Sequence (Q9QUQ5 whole entry, looked up): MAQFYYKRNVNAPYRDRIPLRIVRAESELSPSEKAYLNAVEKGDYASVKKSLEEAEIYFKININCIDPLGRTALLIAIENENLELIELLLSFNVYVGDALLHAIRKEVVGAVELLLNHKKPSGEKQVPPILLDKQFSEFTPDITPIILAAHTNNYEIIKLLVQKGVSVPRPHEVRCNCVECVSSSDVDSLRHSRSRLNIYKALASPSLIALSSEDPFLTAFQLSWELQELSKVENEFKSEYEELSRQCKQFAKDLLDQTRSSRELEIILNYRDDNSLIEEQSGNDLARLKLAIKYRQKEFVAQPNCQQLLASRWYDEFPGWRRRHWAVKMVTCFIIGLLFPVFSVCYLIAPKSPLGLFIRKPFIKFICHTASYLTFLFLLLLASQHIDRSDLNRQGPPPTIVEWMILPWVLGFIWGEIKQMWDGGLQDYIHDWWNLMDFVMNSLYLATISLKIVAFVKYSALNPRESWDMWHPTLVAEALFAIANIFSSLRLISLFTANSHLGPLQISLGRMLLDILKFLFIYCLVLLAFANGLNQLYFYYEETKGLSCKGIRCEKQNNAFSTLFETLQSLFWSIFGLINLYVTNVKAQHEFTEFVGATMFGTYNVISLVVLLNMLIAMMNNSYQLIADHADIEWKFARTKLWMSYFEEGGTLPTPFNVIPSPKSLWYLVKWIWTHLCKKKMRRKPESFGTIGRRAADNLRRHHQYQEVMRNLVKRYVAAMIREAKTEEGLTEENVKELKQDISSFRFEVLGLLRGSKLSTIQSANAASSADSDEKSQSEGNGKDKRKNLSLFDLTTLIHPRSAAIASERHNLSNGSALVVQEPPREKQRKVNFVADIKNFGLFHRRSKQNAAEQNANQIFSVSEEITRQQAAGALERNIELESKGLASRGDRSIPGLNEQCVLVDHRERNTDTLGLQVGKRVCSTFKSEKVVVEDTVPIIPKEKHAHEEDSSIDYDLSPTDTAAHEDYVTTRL
# Experimental details: calcium flux activators in TRPC4/5HT1a cells, counter-screen for TRPC4 activator project, cell-based, second counter screen, HEK293 TRPC4/5HT1a, Fluo-4 (AID 434977)
# Condition description: Fluo-4 calcium flux, at 10 µM
Activity calls are given as the source filed them.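 The calls were made as follows: active = calcium signal rise above buffer-control mean plus 5 SD in both duplicates, and also a hit in the primary screen; inactive = the rest.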
Log the outcome using a class from true = active, false = inactive

In [3]: df
Out[3]:
                                   compound  category
0    CCOC(=O)c1cc(=O)n(Cc2ccccc2C)c2ccccc12     false
1  Cc1ccccc1OCCNc1cc(N2CCNCC2)ccc1[N+](=O)[O-]     false

Asked: Call for entry COc1cccc(N2CC(O)=C(c3nc4ccccc4c(=O)[nH]3)C2=N)c1 :
Given back: false

Asked: Returns: the outcome recorded for COc1ccc(CNC(=O)CN(C)Cc2ccccc2F)cc1OC in this assay.
Given back: false

Asked: Look up the recorded call for CCC(=O)N1CCc2cc(Br)cc(S(=O)(=O)NCCCN(CC)Cc3ccccc3)c21 in this test.
Given back: true

Asked: Answer briefly: the call reported for Cc1ccc2nc(N(CCCN(C)C)C(=O)c3ccc(S(=O)(=O)N4CCc5ccccc5C4)cc3)sc2c1 in this assay.
Given back: true

Asked: How did this test come out for Cc1cc([N+](=O)[O-])ccc1NCc1ccccc1 ?
Given back: false

Asked: Please indicate how the test categorized CC1Cc2ccccc2N1C(=O)CSc1nc2c(c(=O)n(C)c(=O)n2C)n1Cc1ccc(F)cc1 (stereo not given) .
Given back: false

====

# Target of assay: Short transient receptor potential channel 6 (Mus musculus)
# Experimental details: TRPC6 blockade by TRPC4 inhibitor hits – cell-based, HEK293, membrane potential dye, duplicate, selectivity assay for TRPC4 inhibitor project, confirmation (AID 434948)
# Condition description: HEK293 TRPC6, membrane potential dye fluorescence, at 10 µM, stimulated with maximal-effect acetylcholine
The source made the active and inactive calls.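 How the source made its calls: active means active in primary screen and both duplicates, each dropping signal beyond three positive-control SD with fluorescence still positive; inactive means the rest.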
Please state which outcome applies, choosing from TRUE (active), FALSE (inactive)

Solved entries:
>>> df
                                   molecule                           target_of_assay  category
0              Cc1n[nH]c(C)c1Cc1c(F)cccc1Cl  Short transient receptor potential channel 6 (Mus musculus)     FALSE
1  O=C(O)c1nn(CC(=O)N2CCN(c3ncc(C(F)(F)F)cc3Cl)CC2)c(=O)c2ccccc12  Short transient receptor potential channel 6 (Mus musculus)     FALSE
2              Cc1ccc(Nc2nc3ccccc3[nH]2)nc1  Short transient receptor potential channel 6 (Mus musculus)     FALSE

Asked: Which result was noted for this molecule in the test: Cc1cc(OCCN2CCCC2)ccc1[N+](=O)[O-]
Given back: FALSE

Asked: I would be grateful if you could indicate the recorded call for CC(C)CCN1CCN(Cc2ccsc2)CC1CCO (stereo not drawn) .
Given back: FALSE

Asked: Hi, sorry to bother you, what did the test record for CC1CCc2c(sc(/N=C/N(C)C)c2C#N)C1 (stereo not drawn) ?
Given back: FALSE

Asked: Assay result, entry CN(C)CC(CCC(CN(C)C)C(O)(c1ccccc1)c1ccccc1)C(O)(c1ccccc1)c1ccccc1 (stereo not drawn) — outcome?
Given back: FALSE

Asked: Hi team, can someone confirm the assay call for O=C(C[n+]1cc(-c2ccc(Br)cc2)n2c1CCCCC2)c1ccccc1 ?
Given back: FALSE

Asked: Please let me know the test result on file for NC(=O)c1nsc(C(=O)N(Cc2ccccc2F)C(C(=O)NCC2CCCO2)c2ccc(F)cc2)c1N (stereo not drawn) .
Given back: FALSE

Asked: # outcome recorded in this test, key = COC(=O)c1ccc(/C=N/N2CCN(Cc3ccc(C)cc3C)CC2)cc1
Given back: FALSE

Asked: So what was the verdict on COc1ccc(C(CNC(=O)c2oc3ccc(F)cc3c2C)N2CCCCC2)cc1 (stereo not drawn) in this test?
Given back: FALSE

Asked: Could you please tell me the result logged for COc1cc(NC(=O)C(C)Oc2ccccc2)cc(OC)c1 (stereo not drawn) in this assay?
Given back: FALSE

Asked: Please state the recorded outcome for this molecule: c1ccc(CNc2c3ccccc3nc3ccccc23)cc1
Given back: TRUE

Asked: Dear all, I need the recorded test outcome for COc1ccc(NS(=O)(=O)c2cccc(C(=O)N3CCN(Cc4cc(OC)ccc4OC)CC3)c2)cc1 , thank you.
Given back: FALSE

Asked: Dear colleague, could you share the recorded outcome for Clc1ccc(CN2C3=NCCN3c3ccccc32)cc1 when you have a moment?
Given back: FALSE

Asked: How did this test come out for CN(C)C(CNC(=O)c1ccc2nc[nH]c2c1)c1ccccc1 (stereo not drawn) ?
Given back: FALSE

Asked: Could you check what this test reported for CCN(CC)CC(=O)Nc1ccccc1SCC(=O)Nc1ccsc1C(=O)OC ?
Given back: FALSE

Asked: In this assay, the call recorded for COc1ccccc1Nc1nc(NCC2CCCO2)c2ccccc2n1 (stereo not drawn) was what?
Given back: TRUE

Asked: Which outcome was entered for the molecule COc1ccccc1N1CCN(c2ncc(C(=O)N3CCN(c4cccc(Cl)c4)CC3)c3ccccc23)CC1 in this test?
Given back: FALSE

Asked: Lab log entry: Fc1ccc(Nc2ncnc3sc4c(c23)CCC4)cc1 — outcome as called in the assay?
Given back: FALSE

Asked: Status in this test for COc1ccc(CCn2c(=S)[nH]c3cc(C(=O)N4CCOCC4)ccc3c2=O)cc1OC ?
Given back: FALSE

Asked: Called result for Cc1cccn2c(=O)c3cc(C(=O)N(C)C)n(C)c3nc12
Given back: FALSE

Asked: Per the assay record, what outcome was assigned to Clc1ccc2nc(CN3CCCc4ccccc43)cn2c1 ?
Given back: FALSE

====

# Target of assay: Short transient receptor potential channel 4 (Mus musculus)
# Experimental details: block of DAMGO-driven TRPC4 calcium entry – cell-based, HEK293 TRPC4/mu-opioid, Fluo-4 calcium, dose response (AID 434942)
# Condition description: HEK293 TRPC4/mu-opioid cells, DAMGO-evoked Fluo-4 calcium ratio; series mostly up to 20 µM
Potency and affinity values are given separately. Activity calls are given as the source filed them.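 Rule for the calls: active = primary screen inhibitor hit that blocks the TRPC4 channel at some tested dose, yielding a dose curve; inactive = the rest.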
Readout type: outcome

Below are worked cases with known answers.
In [3]: df
Out[3]:
                                   molecule    result
0  COc1ccc(C(CNC(=O)c2cccc(Br)c2)N2CCCC2)cc1 (stereo unspecified)  inactive
1  Cc1cccc(NC(=S)NCC(c2ccccc2)N(C)C)c1 (stereo unspecified)  inactive
2  COc1ccc(/C=N/NC(=O)c2ccc(F)cc2)cc1CN1CCc2cc(OC)c(OC)cc2C1C (stereo unspecified)  inactive
3  O=C(OCCCCN1C(=O)c2ccccc2C1=O)c1ccc(S(=O)(=O)N2CCCC2)cc1  inactive
4  CCn1c(C2CC(=O)N(Cc3ccccc3)C2)nc2ccccc21 (stereo unspecified)  inactive
5                   Cc1cc(Br)ccc1OCCN1CCCC1  inactive
6   COc1ccc(CNCC(O)(c2ccccc2)c2ccccc2)cc1OC  inactive
7  COc1ccc(NS(=O)(=O)c2ccc3ccccc3c2)c2ncccc12  inactive

Short transient receptor potential channel 4 (Mus musculus) outcome of Cc1cc(Nc2ccccc2O)c2ccccc2n1 is inactive

Kindly note: Short transient receptor potential channel 4 (Mus musculus), CCN1CCN(c2ccc(S(=O)(=O)N3CCCCC3)cc2NC(=O)c2cc3ccccc3o2)CC1 , outcome value reported: inactive

The value of outcome recorded for Cc1noc(C)c1COC(=O)[C@@H](NC(=O)c1ccccc1Cl)C(C)C when tested on Short transient receptor potential channel 4 (Mus musculus) reads inactive
